# TARGET_UNDER_TEST: DDR1 (Homo sapiens (Human))
# ASSAY_PROTOCOL: Measurement of DDR1 enzyme inhibitory activity (phosphorylation of biotinylated peptide, time-resolved fluorescence)
# Format: biochemical
# DETAILS: human DDR1 enzyme, biotinylated peptide phosphorylation; read-out: DDR1 enzyme inhibition assay IC50
pIC50: −log10 of the molar value.

- STRUCTURE: "CCOc1ccc(SCC)c(Nn2cnc3c(Br)cc(C(F)(F)F)cc3c2=O)c1"
  TARGET_UNDER_TEST: "DDR1 (Homo sapiens (Human))"
  pIC50: 6.48
- STRUCTURE: "CCCc1ccc(Cl)cc1Nn1cnc2ccc(OC(F)(F)F)cc2c1=O"
  TARGET_UNDER_TEST: "DDR1 (Homo sapiens (Human))"
  pIC50: 6.39
- STRUCTURE: "CCS(=O)(=O)c1ccc(Cl)cc1Nn1cnc2cc3c(cc2c1=O)OCCO3"
  TARGET_UNDER_TEST: "DDR1 (Homo sapiens (Human))"
  pIC50: 6.22
- STRUCTURE: "CCSc1ccc(Cl)cc1Nn1cnc2ccc(CC)cc2c1=O"
  TARGET_UNDER_TEST: "DDR1 (Homo sapiens (Human))"
  pIC50: 6.70
- STRUCTURE: "CCSc1ccc(C#N)cc1Nn1cnc2cc(Br)c(OC(F)(F)F)cc2c1=O"
  TARGET_UNDER_TEST: "DDR1 (Homo sapiens (Human))"
  pIC50: 6.64
- STRUCTURE: "CCSc1ccc(Cl)cc1Nn1cnc2ccc(C)cc2c1=O"
  TARGET_UNDER_TEST: "DDR1 (Homo sapiens (Human))"
  pIC50: 7.24
- STRUCTURE: "CCSc1ccc(Cl)cc1Nn1cnc2cc3c(cc2c1=O)OCO3"
  TARGET_UNDER_TEST: "DDR1 (Homo sapiens (Human))"
  pIC50: 6.46
- STRUCTURE: "CC(C)Cc1ccc(Cl)cc1Nn1cnc2ccc(OC(F)(F)F)cc2c1=O"
  TARGET_UNDER_TEST: "DDR1 (Homo sapiens (Human))"
  pIC50: 6.48
- STRUCTURE: "CCSc1cc(Cl)c(Cl)cc1Nn1cnc2ccc(C(F)(F)F)cc2c1=O"
  TARGET_UNDER_TEST: "DDR1 (Homo sapiens (Human))"
  pIC50: 6.72

* * *

# TARGET_UNDER_TEST: DDR1 (Homo sapiens (Human), UniProt Q08345)
# Sequence (Q08345 19-913): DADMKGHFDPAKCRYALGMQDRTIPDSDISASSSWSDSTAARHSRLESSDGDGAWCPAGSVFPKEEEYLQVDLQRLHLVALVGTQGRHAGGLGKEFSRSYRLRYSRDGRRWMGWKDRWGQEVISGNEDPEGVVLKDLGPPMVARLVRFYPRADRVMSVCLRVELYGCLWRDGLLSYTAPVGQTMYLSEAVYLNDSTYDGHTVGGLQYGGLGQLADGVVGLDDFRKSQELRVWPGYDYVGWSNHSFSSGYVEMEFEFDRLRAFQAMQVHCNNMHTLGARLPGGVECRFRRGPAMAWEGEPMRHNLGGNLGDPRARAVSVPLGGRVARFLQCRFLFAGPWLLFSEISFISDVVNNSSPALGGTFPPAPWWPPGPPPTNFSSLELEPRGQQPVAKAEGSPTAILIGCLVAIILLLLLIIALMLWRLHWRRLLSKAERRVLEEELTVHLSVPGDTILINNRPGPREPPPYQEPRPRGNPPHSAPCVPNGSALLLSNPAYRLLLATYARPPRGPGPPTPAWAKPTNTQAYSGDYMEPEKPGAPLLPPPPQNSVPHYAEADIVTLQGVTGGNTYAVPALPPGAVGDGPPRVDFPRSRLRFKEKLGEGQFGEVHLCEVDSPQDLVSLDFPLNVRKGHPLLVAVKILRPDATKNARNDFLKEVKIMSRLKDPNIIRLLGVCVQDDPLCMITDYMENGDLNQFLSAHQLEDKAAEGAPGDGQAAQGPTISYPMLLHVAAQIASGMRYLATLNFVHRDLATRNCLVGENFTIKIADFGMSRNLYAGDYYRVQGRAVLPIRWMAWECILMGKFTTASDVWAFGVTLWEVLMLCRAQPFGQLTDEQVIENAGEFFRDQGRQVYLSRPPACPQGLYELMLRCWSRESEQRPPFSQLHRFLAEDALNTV
# ASSAY_PROTOCOL: Measurement of DDR1 enzyme inhibitory activity (phosphorylation of biotinylated peptide, time-resolved fluorescence)
# Assay type: biochemical
# DETAILS: human DDR1 enzyme, biotinylated peptide phosphorylation; read-out: DDR1 enzyme inhibition assay IC50

- STRUCTURE: "CCS(=O)(=O)c1ccc(Cl)cc1Nn1cnc2ccc([N+](=O)[O-])cc2c1=O"
  IC50: "120 nM"
- STRUCTURE: "CCS(=O)(=O)c1ccc(Cl)cc1Nn1cnc2ccc(SC)cc2c1=O"
  IC50: "52 nM"
- STRUCTURE: "CCSc1ccc(C(F)(F)F)cc1Nn1cnc2c(Br)cc(C(F)(F)F)cc2c1=O"
  IC50: "170 nM"
- STRUCTURE: "CCSc1ccc(OC)cc1Nn1cnc2c(Br)cc(C(F)(F)F)cc2c1=O"
  IC50: "160 nM"
- STRUCTURE: "CCSc1ccc(Cl)cc1Cn1cnc2ccc(C(F)(F)F)cc2c1=O"
  IC50: "450 nM"

The measurements presented in this section are drawn from patent US10005739B2.
